# protocol description: Stability in simulated intestinal fluid (SIF)
# Type: in vitro ADME
# study conditions: pig, simulated intestinal fluid (SIF) with porcine pancreatin, pH 6.8, 37 °C, 24 h, RP-HPLC/MS, read-out: degradation in SIF within 24 h
Bridge positions count the residues as written; N and C are the ends. Ends that are not written are not given here.
experimental endpoint: metabolised at 24 h, 50 μM

## Task What does the record list as metabolised at 24 h, 50 μM for SANQCAVPAKDRVDCGYPHVTPKECNNRGCCFDSRIPGVPWCFKPLQE-NH2 (disulfide 5-31, 15-30, 25-42) [TFF3_7-54] ?
## Result ~25%

* * *

# protocol description: Stability in simulated gastric fluid (SGF)
# Type: in vitro ADME, porcine
# study conditions: simulated gastric fluid (SGF) with pepsin, pH 1.3, 15 μL of 1 mM stock in 285 μL, 37 °C, monitored over 24 h, RP-HPLC/LC-MS, read-out: half-life in SGF
# Experimental: We exposed TFF3(C^57Acm) and TFF3 homodimer to simulated gastric fluid (SGF, containing pepsin, pH 1.3) and simulated intestinal fluid (SIF, containing pancreatic enzymes, pH 6.8), and monitored the mixture over 24 h by analytical RP-HPLC and MS. The N- and C-termini of TFF3 and its homodimer were readily truncated in both SGF and SIF (Figure 4A,B). In SGF, TFF3 was cleaved at Leu^6/Ser^7 followed by cleavage at Glu^54/Ala^55 (t1/2 < 5 min). […]
Bridge positions count the residues as written; N and C are the ends. Ends that are not written are not given here.
experimental endpoint: half-life at 50 μM

## Task What does the record list as half-life at 50 μM for SANQCAVPAKDRVDCGYPHVTPKECNNRGCCFDSRIPGVPWCFKPLQE-NH2 (disulfide 5-31, 15-30, 25-42) [TFF3_7-54] ?
## Result > 1440 min

* * *

# protocol description: Stability in simulated intestinal fluid (SIF)
# Format: in vitro ADME
# study conditions: pig, simulated intestinal fluid (SIF) with porcine pancreatin, pH 6.8, 15 μL of 1 mM stock in 285 μL, 37 °C, monitored over 24 h, RP-HPLC/LC-MS, read-out: half-life in SIF
# Procedure: We exposed TFF3(C^57Acm) and TFF3 homodimer to simulated gastric fluid (SGF, containing pepsin, pH 1.3) and simulated intestinal fluid (SIF, containing pancreatic enzymes, pH 6.8), and monitored the mixture over 24 h by analytical RP-HPLC and MS. The N- and C-termini of TFF3 and its homodimer were readily truncated in both SGF and SIF (Figure 4A,B). In SGF, TFF3 was cleaved at Leu^6/Ser^7 followed by cleavage at Glu^54/Ala^55 (t1/2 < 5 min). […]
Bridge positions count the residues as written; N and C are the ends. Ends that are not written are not given here.
experimental endpoint: half-life at 50 μM

## Task What does the record list as half-life at 50 μM for SANQCAVPAKDRVDCGYPHVTPKECNNRGCCFDSRIPGVPWCFKPLQE-NH2 (disulfide 5-31, 15-30, 25-42) [TFF3_7-54] ?
## Result > 24 h
